Molecular target: PAI-1 (Homo sapiens, UniProt P05121)
Sequence (P05121 24-402): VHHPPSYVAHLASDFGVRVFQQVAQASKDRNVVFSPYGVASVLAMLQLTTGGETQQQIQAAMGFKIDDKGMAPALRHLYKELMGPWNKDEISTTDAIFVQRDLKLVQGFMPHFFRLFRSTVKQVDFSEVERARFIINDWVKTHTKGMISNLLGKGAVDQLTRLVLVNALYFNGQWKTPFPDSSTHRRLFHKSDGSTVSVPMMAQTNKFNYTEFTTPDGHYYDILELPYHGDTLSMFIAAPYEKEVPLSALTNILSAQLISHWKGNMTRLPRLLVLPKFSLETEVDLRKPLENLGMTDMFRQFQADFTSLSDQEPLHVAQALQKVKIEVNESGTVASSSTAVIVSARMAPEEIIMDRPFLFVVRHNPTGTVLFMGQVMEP
Test: PAI chromogenic substrate assay (first S2251 assay, tPA/plasminogen system)
Type: biochemical
Conditions: Concentration 7.5 μm
Doc: threshold 4% (exclusive). Items with Inhibition of PAI-1 in the first S2251 chromogenic substrate assay beneath it return Y; others return N.

{"molecule": "COc1ccc(/C=c2\\[nH]c(=O)/c(=C/c3ccc(NC(C)=O)cc3)[nH]c2=O)cc1 [Compound 26]", "cat": "N"}
{"molecule": "O=c1[nH]/c(=C\\c2cccc([N+](=O)[O-])c2)c(=O)[nH]/c1=C\\c1ccccc1 [Compound 24]", "cat": "Y"}
{"molecule": "CC(=O)Oc1ccc(/C=c2\\[nH]c(=O)/c(=C/c3ccccc3)[nH]c2=O)cc1 [Compound 23]", "cat": "Y"}
{"molecule": "CC(=O)Nc1ccc(/C=c2\\[nH]c(=O)/c(=C/c3ccc(F)cc3)[nH]c2=O)cc1 [Compound 72]", "cat": "Y"}
{"molecule": "CC(=O)Nc1ccc(/C=c2\\[nH]c(=O)/c(=C/c3ccccc3F)[nH]c2=O)cc1 [Compound 71]", "cat": "Y"}
{"molecule": "O=c1[nH]/c(=C\\c2cccc(CS)c2)c(=O)[nH]/c1=C\\c1ccccc1 [Compound 64]", "cat": "N"}
{"molecule": "CC(=O)Nc1ccc(/C=c2\\[nH]c(=O)/c(=C/c3ccccc3)[nH]c2=O)cc1 [Compound 34]", "cat": "N"}

---

Readings of Inhibition of PAI-1 in the first S2251 chromogenic substrate assay for the listed compounds
Target: PAI-1 (Homo sapiens, UniProt P05121)
Experiment: PAI chromogenic substrate assay (first S2251 assay, tPA/plasminogen system)
Format: biochemical
Conditions: Concentration 100 μm
measured.quantity: Inhibition of PAI-1 in the first S2251 chromogenic substrate assay (%)

{"structure.notation": "CC(=O)Nc1ccc(/C=c2\\[nH]c(=O)/c(=C/c3ccccc3C(F)(F)F)[nH]c2=O)cc1", "tgt": "PAI-1 (Homo sapiens, UniProt P05121)", "unit.label": "%", "endpoint.result": 30}
{"structure.notation": "COC(=O)Nc1ccc(/C=c2\\[nH]c(=O)/c(=C/c3ccc(OC)cc3)[nH]c2=O)cc1", "tgt": "PAI-1 (Homo sapiens, UniProt P05121)", "unit.label": "%", "endpoint.result": 56}
{"structure.notation": "O=c1[nH]/c(=C\\c2cccc(O)c2)c(=O)[nH]/c1=C\\c1ccccc1", "tgt": "PAI-1 (Homo sapiens, UniProt P05121)", "unit.label": "%", "endpoint.result": 56}
{"structure.notation": "CC(=O)Nc1ccc(/C=c2\\[nH]c(=O)/c(=C/c3ccc(OC(=O)C(C)(C)C)cc3)[nH]c2=O)cc1", "tgt": "PAI-1 (Homo sapiens, UniProt P05121)", "unit.label": "%", "endpoint.result": 80}
{"structure.notation": "CC(=O)Oc1ccccc1/C=c1\\[nH]c(=O)/c(=C/c2ccccc2)[nH]c1=O", "tgt": "PAI-1 (Homo sapiens, UniProt P05121)", "unit.label": "%", "endpoint.result": 87}
{"structure.notation": "O=c1[nH]/c(=C\\c2ccccc2)c(=O)[nH]/c1=C\\c1ccccc1", "tgt": "PAI-1 (Homo sapiens, UniProt P05121)", "unit.label": "%", "endpoint.result": 53}
{"structure.notation": "COc1ccc(/C=c2\\[nH]c(=O)/c(=C/c3ccccc3[N+](=O)[O-])[nH]c2=O)cc1", "tgt": "PAI-1 (Homo sapiens, UniProt P05121)", "unit.label": "%", "endpoint.result": 71}
{"structure.notation": "O=c1[nH]/c(=C\\c2cccc([N+](=O)[O-])c2)c(=O)[nH]/c1=C\\c1cccc([N+](=O)[O-])c1", "tgt": "PAI-1 (Homo sapiens, UniProt P05121)", "unit.label": "%", "endpoint.result": 52}

---

Molecular target: PAI-1 (Homo sapiens)
Assay: PAI chromogenic substrate assay (first S2251 assay, tPA/plasminogen system)
Assay type: biochemical
Conditions: Concentration 12.5 μm
measured.quantity: Inhibition of PAI-1 in the first S2251 chromogenic substrate assay (%)

{"molecule": "COc1ccc(/C=c2\\[nH]c(=O)/c(=C/c3ccc(C(C)(C)C)cc3)[nH]c2=O)cc1 [Compound 50]", "tgt": "PAI-1 (Homo sapiens)", "endpoint.result": 2}
{"molecule": "CC(=O)Nc1ccc(/C=c2\\[nH]c(=O)/c(=C/c3ccc(CNC(=O)OC(C)(C)C)cc3)[nH]c2=O)cc1 [Compound 68]", "tgt": "PAI-1 (Homo sapiens)", "endpoint.result": 37}
{"molecule": "O=c1[nH]/c(=C\\c2ccc(F)cc2F)c(=O)[nH]/c1=C\\c1ccccc1 [Compound 54]", "tgt": "PAI-1 (Homo sapiens)", "endpoint.result": 0}
{"molecule": "CC(=O)NCc1ccc(/C=c2\\[nH]c(=O)/c(=C/c3ccccc3)[nH]c2=O)cc1 [Compound 44]", "tgt": "PAI-1 (Homo sapiens)", "endpoint.result": 1}
{"molecule": "CC(=O)Oc1cccc(/C=c2\\[nH]c(=O)/c(=C/c3ccccc3)[nH]c2=O)c1 [Compound 31]", "tgt": "PAI-1 (Homo sapiens)", "endpoint.result": 1}
{"molecule": "COc1ccc(/C=c2\\[nH]c(=O)/c(=C/c3ccc(CSC)cc3)[nH]c2=O)cc1 [Compound 57]", "tgt": "PAI-1 (Homo sapiens)", "endpoint.result": 2}
{"molecule": "O=c1[nH]/c(=C\\c2c(Cl)cccc2Cl)c(=O)[nH]/c1=C\\c1ccccc1 [Compound 21]", "tgt": "PAI-1 (Homo sapiens)", "endpoint.result": 0}
{"molecule": "COc1ccc(/C=c2\\[nH]c(=O)/c(=C/c3ccc(F)cc3F)[nH]c2=O)cc1 [Compound 69]", "tgt": "PAI-1 (Homo sapiens)", "endpoint.result": 3}
{"molecule": "CC(=O)Oc1ccccc1/C=c1\\[nH]c(=O)/c(=C/c2ccccc2)[nH]c1=O [Compound 32]", "tgt": "PAI-1 (Homo sapiens)", "endpoint.result": 1}
{"molecule": "COC(=O)COc1ccc(/C=c2\\[nH]c(=O)/c(=C/c3ccccc3)[nH]c2=O)cc1 [Compound 93]", "tgt": "PAI-1 (Homo sapiens)", "endpoint.result": 7}
{"molecule": "CSCc1ccc(/C=c2\\[nH]c(=O)/c(=C/c3ccccc3)[nH]c2=O)cc1 [Compound 59]", "tgt": "PAI-1 (Homo sapiens)", "endpoint.result": 19}
{"molecule": "CC(=O)SCc1cccc(/C=c2\\[nH]c(=O)/c(=C/c3ccccc3)[nH]c2=O)c1 [Compound 61]", "tgt": "PAI-1 (Homo sapiens)", "endpoint.result": 26}
{"molecule": "COc1ccc(/C=c2\\[nH]c(=O)/c(=C/c3ccc(OC(=O)C(C)(C)C)cc3)[nH]c2=O)cc1 [Compound 81]", "tgt": "PAI-1 (Homo sapiens)", "endpoint.result": 0}
{"molecule": "CC(C)(C)OC(=O)NCc1ccc(/C=c2\\[nH]c(=O)/c(=C/c3ccccc3)[nH]c2=O)cc1 [Compound 66]", "tgt": "PAI-1 (Homo sapiens)", "endpoint.result": 2}
{"molecule": "COc1ccc(/C=c2\\[nH]c(=O)/c(=C/c3ccc(NC(=O)CO)cc3)[nH]c2=O)cc1 [Compound 88]", "tgt": "PAI-1 (Homo sapiens)", "endpoint.result": 40}
{"molecule": "CC(=O)Nc1ccc(/C=c2\\[nH]c(=O)/c(=C/c3ccccc3C(F)(F)F)[nH]c2=O)cc1 [Compound 78]", "tgt": "PAI-1 (Homo sapiens)", "endpoint.result": 4}
{"molecule": "COC(=O)CCCC(=O)NCc1ccc(/C=c2\\[nH]c(=O)/c(=C/c3ccccc3)[nH]c2=O)cc1 [Compound 94]", "tgt": "PAI-1 (Homo sapiens)", "endpoint.result": 76}
{"molecule": "O=c1[nH]/c(=C\\c2ccccc2)c(=O)[nH]/c1=C\\c1ccccc1 [Compound 45]", "tgt": "PAI-1 (Homo sapiens)", "endpoint.result": 1}
{"molecule": "O=c1[nH]/c(=C\\c2ccccc2Br)c(=O)[nH]/c1=C\\c1ccccc1 [Compound 55]", "tgt": "PAI-1 (Homo sapiens)", "endpoint.result": 1}
{"molecule": "CC(C)Oc1ccc(/C=c2\\[nH]c(=O)/c(=C/c3ccccc3)[nH]c2=O)cc1 [Compound 52]", "tgt": "PAI-1 (Homo sapiens)", "endpoint.result": 2}
{"molecule": "CN(C)CCCOc1ccc(/C=c2\\[nH]c(=O)/c(=C/c3ccccc3)[nH]c2=O)cc1 [Compound 98]", "tgt": "PAI-1 (Homo sapiens)", "endpoint.result": 67}
{"molecule": "CC(C)(C)c1ccc(/C=c2\\[nH]c(=O)/c(=C/c3ccccc3)[nH]c2=O)cc1 [Compound 51]", "tgt": "PAI-1 (Homo sapiens)", "endpoint.result": 5}
{"molecule": "Nc1ccc(/C=c2\\[nH]c(=O)/c(=C/c3ccccc3)[nH]c2=O)cc1 [Compound 30]", "tgt": "PAI-1 (Homo sapiens)", "endpoint.result": 2}
{"molecule": "COc1ccc(/C=c2\\[nH]c(=O)/c(=C/c3ccc4ccccc4c3)[nH]c2=O)cc1 [Compound 27]", "tgt": "PAI-1 (Homo sapiens)", "endpoint.result": 9}
{"molecule": "COc1ccc(/C=c2\\[nH]c(=O)/c(=C/c3ccc(CS(C)(=O)=O)cc3)[nH]c2=O)cc1 [Compound 60]", "tgt": "PAI-1 (Homo sapiens)", "endpoint.result": 1}
{"molecule": "CCOC(=O)CCCCC(=O)NCc1ccc(/C=c2\\[nH]c(=O)/c(=C/c3ccccc3)[nH]c2=O)cc1 [Compound 95]", "tgt": "PAI-1 (Homo sapiens)", "endpoint.result": 16}
{"molecule": "CC(=O)Nc1ccc(/C=c2\\[nH]c(=O)/c(=C/c3c(Cl)cccc3Cl)[nH]c2=O)cc1 [Compound 40]", "tgt": "PAI-1 (Homo sapiens)", "endpoint.result": 4}
{"molecule": "CC(=O)Nc1ccc(/C=c2\\[nH]c(=O)/c(=C/c3ccc(N(C)C)cc3)[nH]c2=O)cc1 [Compound 86]", "tgt": "PAI-1 (Homo sapiens)", "endpoint.result": 41}
{"molecule": "O=C(O)CCCCOc1ccc(/C=c2\\[nH]c(=O)/c(=C/c3ccccc3)[nH]c2=O)cc1 [Compound 97]", "tgt": "PAI-1 (Homo sapiens)", "endpoint.result": 0}
{"molecule": "COc1ccc(/C=c2\\[nH]c(=O)/c(=C/c3cccc(CSC(C)=O)c3)[nH]c2=O)cc1 [Compound 63]", "tgt": "PAI-1 (Homo sapiens)", "endpoint.result": 36}
{"molecule": "O=c1[nH]/c(=C\\c2cccc(O)c2)c(=O)[nH]/c1=C\\c1ccccc1 [Compound 33]", "tgt": "PAI-1 (Homo sapiens)", "endpoint.result": 1}
{"molecule": "CC(=O)Nc1ccc(/C=c2\\[nH]c(=O)/c(=C/c3ccc(COC(C)=O)cc3)[nH]c2=O)cc1 [Compound 58]", "tgt": "PAI-1 (Homo sapiens)", "endpoint.result": 1}
